Provide the recorded growth for the entries that follow.
Tested on: SR leukemia
protocol-notes: NCI-60 one-dose screen, 48 h (100 = growth as untreated, 0 = no growth, -100 = all killed)
condition-label: 10 µM unless noted
Procedure: Growth inhibition of the SR human tumor cell line is measured as a screen for anti-cancer activity. Cells are grown in 96 well plates and exposed to the test compound for 48 hours. Compounds are tested at a single concentration, which is 10^-5 M for most compounds. The reported endpoint is percent growth (GI% or GIPRCNT), where numbers from 0 - 100% represent growth inhibition, and numbers from -100% - 0 represent cell death. For example, a value of 40 represents 60% growth inhibition. […]
Compounds without any hit were thinned out: in the full panel of roughly 83,000, 20% have a hit.
Reply with just the number (in %).

Entry `NC(=O)c1c(NC(=O)c2ccccc2)sc2c1CCC(=O)C2` : reported growth = ? 7.6

Entry `C#CCOc1ccc2ncnc(Nc3ccc(NC(=O)CCl)cc3)c2c1` : reported growth = ? -7.69

Entry `Brc1c2c(c(Br)c3ccccc13)CCCC2` : reported growth = ? 99

Entry `O=S(=O)(NCCCNc1nccc(-c2c(-c3ccc(F)c(O)c3)nc3occn23)n1)c1ccccc1` : reported growth = ? 70.2

* * *

System: SK-OV-3 ovarian
protocol-notes: NCI-60 one-dose screen, 48 h (100 = growth as untreated, 0 = no growth, -100 = all killed)
condition-label: 10 µM unless noted
This is part of a sample that, as a whole, favours compounds with a hit. Of some 83,000 tested, about 20% had one in any assay.
reported-endpoint: growth (%)
Reply with just the number (in %).

SK-OV-3 ovarian / growth / `O=C(O)c1[nH]c(=O)[nH]c(=O)c1[N+](=O)[O-]` : value? 116

SK-OV-3 ovarian / growth / `CCOC(=O)c1cnc2ccccc2c1Cl` : value? 101

SK-OV-3 ovarian / growth / CCn1cc(C(=O)N/N=C/c2cccs2)c(=O)c2cc(F)c(N3CCNC(C)C3)c(F)c21 (stereo not drawn) : value? 90.3

SK-OV-3 ovarian / growth / N#CC1CCc2c(c(-c3cn[nH]c3C(F)(F)F)nc3c(F)cc4[nH]ncc4c23)C1 (stereo not drawn) : value? -1.91

SK-OV-3 ovarian / growth / `Cn1ccnc1C(=O)C(=O)Nc1ccc(CC(=O)Nc2ccccc2)cc1` : value? 115

SK-OV-3 ovarian / growth / `COc1ccc(N2CCC(=O)NC2=S)cc1` : value? 103

SK-OV-3 ovarian / growth / `COc1ccc(-c2csc(NC(=O)CSc3nc(-c4ccccc4)cc(=O)[nH]3)n2)cc1` : value? 91

SK-OV-3 ovarian / growth / `COc1cc(CNC(=O)CCCC/C=C/C(C)C)ccc1OCc1nnc(Nc2ccc([N+](=O)[O-])cc2)o1` : value? 11.8

SK-OV-3 ovarian / growth / `Cc1ccc(/C=C2\CN(C(=O)OC(C)(C)C)C/C(=C\c3ccc(C)cc3)C2=O)cc1` : value? 104

SK-OV-3 ovarian / growth / `O=C1C(Cl)=C(Oc2ccccc2)C(=O)c2ccccc21` : value? 103

SK-OV-3 ovarian / growth / `O=C(CSc1nc2ccc([N+](=O)[O-])cc2[nH]1)Nc1cccc(C(F)(F)F)c1` : value? 27.1

SK-OV-3 ovarian / growth / `CCOC(=O)c1c2c(n3ccc(C)cc13)C(=O)c1ccccc1C2=O` : value? 103

SK-OV-3 ovarian / growth / `O=C(CCCCCCN1CC(=O)N2[C@H](c3cc(Br)cs3)c3[nH]c4ccccc4c3C[C@H]2C1=O)NO` : value? 61.9

SK-OV-3 ovarian / growth / `Cn1c(-c2ccc(Br)cc2)c(O)c(=O)c2c(F)cccc21` : value? 46.3

SK-OV-3 ovarian / growth / N#CC1=C(N)Oc2c(sc3c(F)cccc23)C1c1ccc(F)cc1 (stereo not drawn) : value? 31.8

SK-OV-3 ovarian / growth / `O=C(/C=C(/C=C/c1cccc2[nH]ccc12)OB(F)F)/C=C/c1cccc2[nH]ccc12` : value? -20.7

SK-OV-3 ovarian / growth / `CN(C)Cc1ccc(NC(=O)c2cncc(C#Cc3cnc(N)c4ncccc34)c2)cc1F` : value? 112

SK-OV-3 ovarian / growth / `Cc1nc(N2CCOCC2)sc1S(N)(=O)=O` : value? 102

* * *

Tested on: UACC-62 melanoma
protocol-notes: NCI-60 one-dose screen, 48 h (100 = growth as untreated, 0 = no growth, -100 = all killed)
condition-label: 10 µM unless noted
Experimental: Growth inhibition of the UACC-62 human tumor cell line is measured as a screen for anti-cancer activity. Cells are grown in 96 well plates and exposed to the test compound for 48 hours. Compounds are tested at a single concentration, which is 10^-5 M for most compounds. The reported endpoint is percent growth (GI% or GIPRCNT), where numbers from 0 - 100% represent growth inhibition, and numbers from -100% - 0 represent cell death. For example, a value of 40 represents 60% growth inhibition. […]
This is part of a sample that, as a whole, favours compounds with a hit. Of some 83,000 tested, about 20% had one in any assay. Activity calls are given as the source filed them. Rule for the calls: active = growth percent below 10; inactive = the rest.
reported-endpoint: growth

UACC-62 melanoma / growth / `COc1cc(-c2nc(SCCC(C)C)nc(Nc3ccccc3Cl)c2C#N)cc(OC)c1OC` : value? 81% (inactive)

UACC-62 melanoma / growth / `OB(O)c1cccc(-c2nc3ccc4[nH]ncc4c3c3c2CCCC3)c1` : value? 35.5% (inactive)

UACC-62 melanoma / growth / `COc1cc(CNS(=O)(=O)c2ccc(C)cc2)ccc1OCc1cn(-c2ccc(Br)cc2)nn1` : value? 94.3% (inactive)

UACC-62 melanoma / growth / COc1cc(OC)cc(C2=C3CC[C@@H]4[C@H](CC[C@]5(C)C(=O)CC[C@@H]45)C3=CC3C(O)c4cccnc4N4C(=O)COC234)c1 (stereo not given in full) : value? 94.1% (inactive)

UACC-62 melanoma / growth / `COc1ccc2c(O)c(/C=C3\N=Nc4ccccc43)oc2c1C[C@@H]1CCNC[C@H]1F` : value? 76% (inactive)

UACC-62 melanoma / growth / `O=C(Nc1nn(-c2ccc(Cl)cc2Cl)nc1-c1ccccc1)c1ccccc1` : value? 84.9% (inactive)

UACC-62 melanoma / growth / CCOC(=O)CNP(=O)(OC[C@@H](Cc1ccccc1)NC(=O)c1cc2ccccc2s1)Oc1ccccc1 (stereo not given in full) : value? 71.4% (inactive)

UACC-62 melanoma / growth / `Cc1cccc(Cl)c1NC(=O)c1ccc2nc(NC(=O)NCCN(C)C)sc2c1` : value? 97.3% (inactive)

UACC-62 melanoma / growth / `Cn1ccc2c3c(ccc21)CC3=O` : value? 99.1% (inactive)

UACC-62 melanoma / growth / `O=C1C(Cl)=C(Oc2ccccc2)C(=O)c2ccccc21` : value? 53% (inactive)

* * *

Test system: IGROV1 ovarian
protocol-notes: NCI-60 one-dose screen, 48 h (100 = growth as untreated, 0 = no growth, -100 = all killed)
condition-label: 10 µM unless noted
Compounds without any hit were thinned out: in the full panel of roughly 83,000, 20% have a hit.
I'd appreciate it if you marked entries Met when growth is lower than 30% and Not met when it is not.

Confirm or reject: growth of `CCN(CC)c1ccc(/C=C/C(=O)c2ccc(Nc3nc(Nc4ccccc4)nc(Nc4ccccc4)n3)cc2)cc1` lies strictly below 30% Not met

Confirm or reject: growth of CCN1C(=O)N(CC)C2C1NN=c1s/c(=C\c3cccc([N+](=O)[O-])c3)c(=O)n12 (configuration not stated) lies strictly below 30% Met

Confirm or reject: growth of `O=C(OCc1ccc2c(Cl)cc(Cl)c(O)c2n1)n1cncn1` lies strictly below 30% Not met

Confirm or reject: growth of `Cc1ccc(Cl)cc1Nc1nc(C(F)(F)F)ccc1C(=O)N/N=C/c1cccnc1` lies strictly below 30% Met

Confirm or reject: growth of `O=C1C(Cl)=C(Oc2ccccc2)C(=O)c2ccccc21` lies strictly below 30% Not met

Confirm or reject: growth of `C#CCOc1ccc2ncnc(Nc3cccc(NC(=O)C=C)c3)c2c1` lies strictly below 30% Not met

* * *

Provide the recorded growth for the entries that follow.
Tested on: 786-0 renal
protocol-notes: NCI-60 one-dose screen, 48 h (100 = growth as untreated, 0 = no growth, -100 = all killed)
condition-label: 10 µM unless noted
This is part of a sample that, as a whole, favours compounds with a hit. Of some 83,000 tested, about 20% had one in any assay.
Reply with just the number (in %).

Entry `CCOC(=O)c1c2c(n3ccc(C)cc13)C(=O)c1ccccc1C2=O` : reported growth = ? 97.3

Entry `COCCn1cc(-c2nc(-c3cc4cccnc4n3CCOC)cs2)c2cc(OC)ccc21` : reported growth = ? 58.5

Entry `CC1=C(Nc2ccc(N3CCN(C)CC3)cc2)C(=O)c2cncnc2C1=O` : reported growth = ? 107
